- Procedure summary: Tmax in mouse at 6 mg/kg, po
- Assay type: ADME, organism-based
- Experimental context: in vivo

{"columns": ["Molecule", "U", "Tmax"],
 "data": [
  ["Cc1c(-c2c(F)cc(C(N)=O)c3[nH]c4c(c23)CC[C@H](C(C)(C)O)C4)cccc1-n1c(=O)c2cccc(F)c2n(C)c1=O (atropisomer R)", "h", 1]
]}

====

- Procedure summary: Clearance in cynomolgus monkey at 2 mg/kg, iv
- Format: ADME, organism-based, Macaca fascicularis
- Experimental context: in vivo

{"columns": ["Molecule", "U", "clearance"],
 "data": [
  ["Cc1c(-c2c(F)cc(C(N)=O)c3[nH]c4c(c23)CC[C@H](C(C)(C)O)C4)cccc1-n1c(=O)c2cccc(F)c2n(C)c1=O (atropisomer R)", "mL/min/kg", 10]
]}
